system: MS2 coat protein; test: apparent KD of MS2 coat protein; higher = weaker reporter binding; conditions: Eterna round: R107; input ligand: arginine 13.2 mM

# query-sequence, units-text, apparent KD of MS2 coat protein
data = [
    ("ACAUGAGGAUCACCCAUGUUUGUUGUUCCUCGAGGACCGGUACGGCCGCCACUCGAACGAGUGGCGCGCGAGUGCGCACUCGCGC [aOa]", "nM", 12.7),
    ("UCGCAUUGCUGCGAUACCAGACAUGAGGAUCACCCAUGUACCAAGAAAACGUACAUAAAUGUCCCUUGGCAGCGCAGCAAUGCGU [MAT - Exclusion Theophlline B - Mod of Eli - D26]", "nM", 148),
    ("CUCUUGGCCGCAGUACGUUUAUAGACCUAUCGAGGACCGGUACGGCCGCCACUCGGUUAGUCACAUGAGGAUCACCCAUGUGUCC [theeternabot_exclusion_MS2_Trp_A_38]", "nM", 17),
    ("GAGCGCGUGGACUGGCGUGCUCCGCUCCGUCGAGGACCGGUACGGCCGCCACUCGACAUGAGGAUCACCCAUGUGCGCGCUCGCU [#1 Exclusion - Tryptophan A Attempt #23 (HarryS)]", "nM", 7.37),
]
